STUDY TARGET: Fatty-acid amide hydrolase 1 (Rattus norvegicus) (UniProt P97612)
Sequence (P97612 whole entry): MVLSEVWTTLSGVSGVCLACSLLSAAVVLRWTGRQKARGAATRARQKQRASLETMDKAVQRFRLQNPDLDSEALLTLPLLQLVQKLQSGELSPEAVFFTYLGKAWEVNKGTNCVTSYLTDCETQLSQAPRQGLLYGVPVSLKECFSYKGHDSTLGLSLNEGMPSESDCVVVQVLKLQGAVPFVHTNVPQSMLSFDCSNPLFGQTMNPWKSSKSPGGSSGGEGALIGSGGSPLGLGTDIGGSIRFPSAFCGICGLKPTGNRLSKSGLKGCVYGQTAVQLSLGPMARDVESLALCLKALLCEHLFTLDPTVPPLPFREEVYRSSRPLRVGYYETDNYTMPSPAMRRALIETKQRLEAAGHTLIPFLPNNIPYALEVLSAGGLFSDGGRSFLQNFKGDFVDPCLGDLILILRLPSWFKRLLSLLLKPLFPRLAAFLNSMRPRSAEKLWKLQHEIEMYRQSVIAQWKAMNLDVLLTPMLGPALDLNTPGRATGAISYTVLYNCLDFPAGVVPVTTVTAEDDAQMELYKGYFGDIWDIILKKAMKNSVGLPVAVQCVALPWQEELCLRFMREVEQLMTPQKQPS
PROTOCOL: Inhibition of rat FAAH assessed as ratio of Kinact to Ki
Reported values of Ratio for individual entries
ATTRIBUTE MEASURED: Ratio

- O=C(Nc1cccnc1)N1CC(CCCc2cccc(Oc3ccc(C(F)(F)F)cn3)c2)C1: 688 M⁻¹ s⁻¹
- O=C(Nc1cccnc1)N1CC(C/C=C/c2cccc(Oc3ccc(C(F)(F)F)cn3)c2)C1: 2310 M⁻¹ s⁻¹
- O=C(Nc1cccnc1)N1CC(/C=C\Cc2cccc(Oc3ccc(C(F)(F)F)cn3)c2)C1: 5390 M⁻¹ s⁻¹
- O=C(Nc1cncc2[nH]ccc12)N1CC(CCCc2cccc(Oc3ccc(C(F)(F)F)cn3)c2)C1: 5160 M⁻¹ s⁻¹
- O=C(Nc1cccnc1)N1CC(C#CCc2cccc(Oc3ccc(C(F)(F)F)cn3)c2)C1: 465 M⁻¹ s⁻¹
- O=C(Nc1cccnn1)N1CC(CCCc2cccc(Oc3ccc(C(F)(F)F)cn3)c2)C1: 1840 M⁻¹ s⁻¹
- O=C(Nc1cccnc1)N1CC(/C=C/Cc2cccc(Oc3ccc(C(F)(F)F)cn3)c2)C1: 2380 M⁻¹ s⁻¹
- Cc1noc(NC(=O)N2CC(CCCc3cccc(Oc4ccc(C(F)(F)F)cn4)c3)C2)c1C: 15300 M⁻¹ s⁻¹
- O=C(Nc1cccnc1)N1CC(=CCCc2cccc(Oc3ccc(C(F)(F)F)cn3)c2)C1: 1310 M⁻¹ s⁻¹
